System: HEK-293T
protocolNotes: Multiplex assay against HEK293T
Type: toxicity, cell-based
reportedConditions: human, 12 h, 1 µM, compound concentration 1 uM, replicate 2
Labelling field: enter yes (1) if recorded Population Mitotic Cells (%) is less than 80%. Enter no (0) if it equals or exceeds that cut-off.

INSERT INTO results (compound, cat) VALUES
  ('CCCn1c(=O)c2[nH]c(C34CC5CC(CC3C5)C4)nc2n(CCC)c1=O', 'no (0)'),
  ('CNC(=O)c1nn(C)c2c1C(C)(C)Cc1cnc(Nc3ccc(N4CCN(C)CC4)cc3)nc1-2', 'yes (1)'),
  ('Cl.Cl.NC1(c2ccc(-c3nc4ccn5c(=O)[nH]nc5c4cc3-c3ccccc3)cc2)CCC1', 'no (0)'),
  ('O=C(O)c1ccc2cc(-c3ccc(O)c(C45CC6CC(CC(C6)C4)C5)c3)ccc2c1', 'no (0)'),
  ('COc1cc2c(NC3CCN(C(C)C)CC3)nc(N3CCC(F)(F)CC3)nc2cc1OCCCN1CCCC1', 'yes (1)'),
  ('CCOc1cc(N2CCC(O)CC2)ccc1Nc1ncc2c(n1)N(C1CCCC1)CCC(=O)N2C', 'no (0)'),
  ('CCn1c(-c2nonc2N)nc2cnc(Oc3cccc(NC(=O)c4ccc(OCCN5CCOCC5)cc4)c3)cc21 [GSK-269962A]', 'no (0)'),
  ('COc1ccc(NS(=O)(=O)c2sc3ccc(Cl)cc3c2C)cc1N1CCNCC1.Cl', 'no (0)'),
  ('Cc1nc(Cc2cccc(C(F)(F)F)c2)sc1-c1ccc(C(N)=O)nc1 [TP-024n]', 'no (0)'),
  ('CCC(=O)O[C@]1(C(=O)SCF)[C@H](C)C[C@H]2[C@@H]3C[C@H](F)C4=CC(=O)C=C[C@]4(C)[C@@]3(F)[C@@H](O)C[C@@]21C [FLUTICASONE PROPIONATE]', 'no (0)');

Just wondering, is Population Mitotic Cells (%) of c1ccc2oc(-c3csc(C4CCN(Cc5nc6ncccc6[nH]5)CC4)n3)cc2c1 below 80%? no (0)

Just wondering, is Population Mitotic Cells (%) of CNc1oc(-c2cccc3ccccc23)nc1C#N below 80%? no (0)

Just wondering, is Population Mitotic Cells (%) of COc1cc(N2CCC(N(C)C)CC2)ccc1Nc1ncc(Cl)c(Nc2ccccc2P(C)(C)=O)n1 below 80%? no (0)

Just wondering, is Population Mitotic Cells (%) of COc1cc2c(Nc3ccc(NC(=O)c4ccccc4)cc3)ncnc2cc1OCCCN1CCOCC1 below 80%? yes (1)

Just wondering, is Population Mitotic Cells (%) of CC(C)Oc1ccc(C(=O)N[C@H](CNC(=O)CN(C)C)Cc2ccc(-c3cn4cccc([C@H](C)O)c4n3)cc2)cc1Cl [GSK-923295A] below 80%? no (0)

This collection of values is drawn from ChEMBL document CHEMBL4689842.
